tested on: P-Akt (S473); assay: Cell based AlphaLISA assay, inhibition of P-Akt (S473) in MDA-MB-468 cells; conditions: Homo sapiens, 4 h, 0.017-1,000 nM, two to four hours at 37° C., AlphaLisa SureFire Ultra, read-out: pIC50 for Inhibition of mTORC1 and mTORC2 Substrate Phosphorylation, p-AKT1/2/3-(S473) (converted)
experimental-endpoint: IC50

CO[C@H]1C[C@@H]2CC[C@@H](C)[C@@](O)(O2)C(=O)C(=O)N2CCCC[C@H]2C(=O)O[C@H]([C@H](C)C[C@@H]2CC[C@@H](O)[C@H](OC)C2)C[C@@H](O)[C@H](C)/C=C(\C)[C@@H](O)[C@@H](OC)C(=NOCC(=O)NCc2cnc(N3CCN(C(=O)CCOCCN4CCN(c5ncc(C(=O)N6CCc7cc(Cn8nc(-c9ccc%10oc(N)nc%10c9)c9c(N)ncnc98)ccc7C6)cn5)CC4)[C@@H](C(=O)O)C3)nc2)[C@H](C)C[C@H](C)/C=C/C=C/C=C/1C = > 1000 nM

In the following, a different compound is considered.
Value of IC50 reported for the compound `CO[C@H]1C[C@@H]2CC[C@@H](C)[C@@](O)(O2)C(=O)C(=O)N2CCCC[C@H]2C(=O)O[C@H]([C@H](C)C[C@@H]2CC[C@@H](O)[C@H](OC)C2)C[C@@H](O)[C@H](C)/C=C(\C)[C@@H](O)[C@@H](OC)C(=NOCC(=O)NCc2cnc(N3CCN(C(=O)CCOCCN4CCC(N5CCC(C(=O)N6CCc7cc(Cn8nc(-c9ccc%10oc(N)nc%10c9)c9c(N)ncnc98)ccc7C6)CC5)CC4)CC3)nc2)[C@H](C)C[C@H](C)/C=C/C=C/C=C/1C` is > 1000 nM
